Molecular target: T1, human TGFβ3 (human, UniProt P10600 301-412)
T1 sequence: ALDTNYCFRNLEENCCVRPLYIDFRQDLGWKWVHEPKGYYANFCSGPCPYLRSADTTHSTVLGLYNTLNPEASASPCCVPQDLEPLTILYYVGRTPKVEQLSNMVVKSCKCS
Experiment: Biacore off-rate vs wt GC1008, 50 nM

{"BINDER": "S30V (antibody, V domains shown, GC1008 IgG4 variant) VH: QVQLVQSGAEVKKPGSSVKVSCKASGYTFVSNVISWVRQAPGQGLEWMGGVIPIVDIANYAQRFKGRVTITADESTSTTYMELSSLRSEDTAVYYCASTLGLVLDAMDYWGQGTLVTVSS VL: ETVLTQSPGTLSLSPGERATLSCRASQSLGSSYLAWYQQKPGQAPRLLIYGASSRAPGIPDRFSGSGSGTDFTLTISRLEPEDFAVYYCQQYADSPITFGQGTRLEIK", "kd var/kd wt": 1.1}
{"BINDER": "I52V (antibody, V domains shown, GC1008 IgG4 variant) VH: QVQLVQSGAEVKKPGSSVKVSCKASGYTFSSNVISWVRQAPGQGLEWMGGVVPIVDIANYAQRFKGRVTITADESTSTTYMELSSLRSEDTAVYYCASTLGLVLDAMDYWGQGTLVTVSS VL: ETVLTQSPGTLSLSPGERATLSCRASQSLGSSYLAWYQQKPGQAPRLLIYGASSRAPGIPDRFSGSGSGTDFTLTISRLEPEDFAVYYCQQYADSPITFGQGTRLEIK", "kd var/kd wt": 1.2}
{"BINDER": "Y27W (antibody, V domains shown, GC1008 IgG4 variant) VH: QVQLVQSGAEVKKPGSSVKVSCKASGWTFSSNVISWVRQAPGQGLEWMGGVIPIVDIANYAQRFKGRVTITADESTSTTYMELSSLRSEDTAVYYCASTLGLVLDAMDYWGQGTLVTVSS VL: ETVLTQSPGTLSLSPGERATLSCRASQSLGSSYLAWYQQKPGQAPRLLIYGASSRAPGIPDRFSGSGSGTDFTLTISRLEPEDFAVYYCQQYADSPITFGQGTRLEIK", "kd var/kd wt": 1.4}
